All values here come from the supplement of paper PMC4862054.

# System: MDA-MB-436
# Protocol summary: normalised response (% of control), CellTiter-Glo; higher = more viable cells (100 = DMSO, 0 = benzethonium chloride kill control)
# Assay setup: incubation time: 72 h
Listed here: items and their measured normalised response.
Write the value in % as a bare number.

Consider the worked cases shown below.
INSERT INTO measurements (compound, study_target, endpoint_result) VALUES
  ('O=C(/C=C/c1cccc(S(=O)(=O)Nc2ccccc2)c1)NO [Belinostat] (1000 nM)', 'MDA-MB-436', 51.9),
  ('CCn1c(-c2nonc2N)nc2cnc(Oc3cccc(NC(=O)c4ccc(OCCN5CCOCC5)cc4)c3)cc21 (1 nM)', 'MDA-MB-436', 104),
  ('COCC1(CO)C(=O)C2CCN1CC2 (stereo unspecified) [Prima-1 Met] (10 nM)', 'MDA-MB-436', 101),
  ('Cc1ccc(NC(=O)c2ccc(CN3CCN(C)CC3)cc2)cc1Nc1nc(-c2cccnc2)cs1 [Masitinib] (1 nM)', 'MDA-MB-436', 100),
  ('Oc1ccc2c(c1)CC[C@H](c1ccccc1)[C@@H]2c1ccc(OCCN2CCCC2)cc1 [Lasofoxifene] (100 nM)', 'MDA-MB-436', 107);

Given the entry c1ccc2c(CCNc3ccc(Nc4ccncc4)cc3)c[nH]c2c1 [Serdemetan] (10 nM) , report its measured normalised response.
97.9

---

Measured normalised viability accompanies every entry in the list below.
# System: CAL-148
# Protocol summary: normalised viability (% of control), CellTiter-Blue; higher = more viable cells (about 100 = DMSO control)
# Assay setup: incubation time: 72 h
Number only, in %; omit the unit.

Reference set (6 entries):
INSERT INTO assay_data (compound, endpoint_result) VALUES
  ('O=C(Nc1ccncc1)C(=O)c1cn(Cc2ccc(Cl)cc2)c2ccccc12 [Indibulin] (10000 nM)', 43.7),
  ('CNC(=O)c1cc(Oc2ccc(NC(=O)Nc3ccc(Cl)c(C(F)(F)F)c3)c(F)c2)ccn1 [Regorafenib] (10000 nM)', 81.7),
  ('CN(C)CCOc1ccc(/C(=C(/CCCl)c2ccccc2)c2ccccc2)cc1 [Toremifene] (10000 nM)', 104),
  ('N#Cc1ccc(COC[C@H]2O[C@@H](n3c(NCc4ccc(Cl)c(Cl)c4)nc4c(N)ncnc43)[C@H](O)[C@@H]2O)cc1 (10000 nM)', 89),
  ('COc1cc(OC2CCN(C)CC2)ccc1Nc1ncc2c(n1)n(C1CCCC1)c(=O)n2C [AZ 3146] (10000 nM)', 48.4),
  ('COc1cc2/c(=N/c3ccc(Br)cc3F)nc[nH]c2cc1OCC1CCN(C)CC1 [Vandetanib] (10000 nM)', 59.6);

# context switch: different compound, same normalised viability
Requested read-out: normalised viability. Entry: Cc1cc(Nc2cc(CN3CCOCC3)c3nc(C)c(Cc4ccc(Cl)cc4F)n3n2)n[nH]1 (10000 nM)
62.4

---

# Tested on: HDQ-P1
# Protocol summary: normalised viability (% of control), CellTiter-Blue; higher = more viable cells (about 100 = DMSO control)
# Assay setup: incubation time: 72 h
Experimental endpoint: normalised viability (%)
Return type: number; implicit unit %.

Example entries begin here.
INSERT INTO measurements (molecule, endpoint_result) VALUES
  ('CN(C)c1nc(N(C)C)nc(N(C)C)n1 [Altretamine] (3000 nM)', 99.9),
  ('Cc1ccc(NC(=O)c2ccc(CN3CCN(C)CC3)cc2)cc1Nc1nc(-c2cccnc2)cs1 [Masitinib] (3000 nM)', 103),
  ('COCC1(CO)C(=O)C2CCN1CC2 (stereo not given) [Prima-1 Met] (3000 nM)', 77.5);

Look up normalised viability: CO[C@H]1C[C@@H]2CC[C@@H](C)[C@@](O)(O2)C(=O)C(=O)N2CCCC[C@H]2C(=O)O[C@H]([C@H](C)C[C@@H]2CC[C@@H](OP(C)(C)=O)[C@H](OC)C2)CC(=O)[C@H](C)/C=C(\C)[C@@H](O)[C@@H](OC)C(=O)[C@H](C)C[C@H](C)/C=C/C=C/C=C/1C [Ridaforolimus] (300 nM)
65.8

Now this one: O=C(Nc1ccncc1)C(=O)c1cn(Cc2ccc(Cl)cc2)c2ccccc12 [Indibulin] (3000 nM)
54.7

---

# System: MFM-223
# Protocol summary: normalised response (% of control), CellTox Green; higher = less cell death (100 = DMSO, 0 = benzethonium chloride kill control)
# Assay setup: incubation time: 72 h
Experimental endpoint: normalised response (%)
Enter your answer as a number in %; do not include the unit.

INSERT INTO results (compound, study_target, experimental_endpoint, endpoint_result) VALUES
  ('O=C(Nc1ccncc1)C(=O)c1cn(Cc2ccc(Cl)cc2)c2ccccc12 [Indibulin] (1000 nM)', 'MFM-223', 'normalised response', 71.8),
  ('O=C(/C=C/c1cccc(S(=O)(=O)Nc2ccccc2)c1)NO [Belinostat] (100 nM)', 'MFM-223', 'normalised response', 84.1),
  ('COc1cc(OC2CCN(C)CC2)ccc1Nc1ncc2c(n1)n(C1CCCC1)c(=O)n2C [AZ 3146] (100 nM)', 'MFM-223', 'normalised response', 100),
  ('c1ccc2c(CCNc3ccc(Nc4ccncc4)cc3)c[nH]c2c1 [Serdemetan] (100 nM)', 'MFM-223', 'normalised response', 93.3),
  ('Cc1cc(Nc2cc(CN3CCOCC3)c3nc(C)c(Cc4ccc(Cl)cc4F)n3n2)n[nH]1 [Gandotinib] (1000 nM)', 'MFM-223', 'normalised response', 33);

// lookup normalised response for S=P(N1CC1)(N1CC1)N1CC1 [Thio-TEPA] (500 nM)
100

Consider next the compound CCc1c2c(nc3ccc(OC(=O)N4CCC(N5CCCCC5)CC4)cc13)-c1cc3c(c(=O)n1C2)COC(=O)[C@]3(O)CC [Irinotecan] (1000 nM) in the same way.
101

And for CNC(=O)c1ccc(N2C(=S)N(c3ccc(C#N)c(C(F)(F)F)c3)C(=O)C2(C)C)cc1F [Enzalutamide] (100 nM) ?
101

Request: COc1cc2c(NC3CCN(C(C)C)CC3)nc(N3CCC(F)(F)CC3)nc2cc1OCCCN1CCCC1 [UNC0642] (1000 nM)
88.9

---

# Test system: MDA-MB-453
# Protocol summary: normalised response (% of control), CellTiter-Glo; higher = more viable cells (100 = DMSO, 0 = benzethonium chloride kill control)
# Assay setup: incubation time: 72 h
Experimental endpoint: normalised response (%)
All answers are understood in %, so give the number only.

Some entries whose results are on file:
INSERT INTO measurements (compound, endpoint_result) VALUES
  ('O=C(Nc1ccncc1)C(=O)c1cn(Cc2ccc(Cl)cc2)c2ccccc12 [Indibulin] (10 nM)', 95),
  ('CNC(=O)c1cccc(-c2ccc3c(N4CCOC[C@@H]4C)nc(N4CCOC[C@@H]4C)nc3n2)c1 [AZD2014] (1000 nM)', 39.8);

Now for a further compound.
Quick check: normalised response of CO[C@H]1C[C@@H]2CC[C@@H](C)[C@@](O)(O2)C(=O)C(=O)N2CCCC[C@H]2C(=O)O[C@H]([C@H](C)C[C@@H]2CC[C@@H](OP(C)(C)=O)[C@H](OC)C2)CC(=O)[C@H](C)/C=C(\C)[C@@H](O)[C@@H](OC)C(=O)[C@H](C)C[C@H](C)/C=C/C=C/C=C/1C [Ridaforolimus] (0.01 nM) ?
109

---

normalised response values by entry
# System: DU-4475
# Protocol summary: normalised response (% of control), CellTiter-Glo; higher = more viable cells (100 = DMSO, 0 = benzethonium chloride kill control)
# Assay setup: incubation time: 72 h
Could you give me the number in %? Just the number is fine.

These recorded examples may help you get a feel for the data.
INSERT INTO measurements (compound, endpoint_result) VALUES
  ('COCC1(CO)C(=O)C2CCN1CC2 (stereo unspecified) [Prima-1 Met] (100 nM)', 96.1),
  ('CO[C@H]1C[C@@H]2CC[C@@H](C)[C@@](O)(O2)C(=O)C(=O)N2CCCC[C@H]2C(=O)O[C@H]([C@H](C)C[C@@H]2CC[C@@H](OP(C)(C)=O)[C@H](OC)C2)CC(=O)[C@H](C)/C=C(\C)[C@@H](O)[C@@H](OC)C(=O)[C@H](C)C[C@H](C)/C=C/C=C/C=C/1C [Ridaforolimus] (1 nM)', 92.7),
  ('CNC(=O)c1ccc(N2C(=S)N(c3ccc(C#N)c(C(F)(F)F)c3)C(=O)C2(C)C)cc1F [Enzalutamide] (100 nM)', 99.1),
  ('CNC(=O)c1ccc(N2C(=S)N(c3ccc(C#N)c(C(F)(F)F)c3)C(=O)C23CCC3)cc1F [RD162] (100 nM)', 102),
  ('COc1cc(O)c2c(c1)/C=C/C[C@H](O)[C@H](O)C(=O)/C=C\C[C@H](C)OC2=O [(5Z)-7-Oxozeaenol] (100 nM)', 76.1);

# lookup: normalised response of CNC(=O)c1cccc(-c2ccc3c(N4CCOC[C@@H]4C)nc(N4CCOC[C@@H]4C)nc3n2)c1 [AZD2014] (100 nM)
97.1

Another: Cc1ccc(NC(=O)c2ccc(CN3CCN(C)CC3)cc2)cc1Nc1nc(-c2cccnc2)cs1 [Masitinib] (100 nM)
105

Also need CN(C)CCOc1ccc(/C(=C(/CCCl)c2ccccc2)c2ccccc2)cc1 [Toremifene] (100 nM) , thanks.
104

What would you report for CCOC(=O)CCNc1cc(N2CCc3ccccc3CC2)nc(-c2ccccn2)n1 [GSK-J4] (1000 nM) ?
99.5

Same lookup for COc1cc2c(NC3CCN(C(C)C)CC3)nc(N3CCC(F)(F)CC3)nc2cc1OCCCN1CCCC1 [UNC0642] (100 nM) , please.
89.9

Would you mind doing Oc1ccc2c(c1)CC[C@H](c1ccccc1)[C@@H]2c1ccc(OCCN2CCCC2)cc1 [Lasofoxifene] (10 nM) as well?
107
